ASSAY_EXPLANATION: amyloid nucleation score (Sup35N fusion, yeast selection) (log enrichment); library NNK1; higher = more nucleation; inactive = no reads after selection;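 also: zero at mode of non-aggregating sequences after 7 days selection at 30°C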
QUANTITY_MEASURED: amyloid nucleation score
Numbers only.

Consider the worked cases shown below.
IQAMGGRMSRAV -0.073
VCYSLSLNISFSFRNVVVRS 0.899
MKMRFVVSLMNSERSSGRNE 0.9
PMNYGSSNA -0.224
LDGTLVLTYL 0.134
YCGSYHLGSFGIYSTVEIYC 1.37
YKYREGGKWPL -1.3
SYYQKCNAKNIF -0.576
YLYCSVSVYRFERFRRNHSR 0.051
GTTHRDS -0.263

Report amyloid nucleation score for every entry below.
1. NDSICIVVLS
2. FRYVDALHDRSSYIQIGKRI
3. WDTDVLRDNWSQLRFLVSGR

1: -0.009; 2: -0.423; 3: -0.216

I need amyloid nucleation score for every entry listed below, if you could help.
1. AISVGVFRVWC
2. FKTTDHFVGVYCLLYAKKQG
3. KITIGINS
4. LSKVVFGLWFCT

3.53
-0.235
0.4
0.299

* * *

ASSAY_EXPLANATION: amyloid nucleation score (Sup35N fusion, yeast selection) (log enrichment); library NNK3; higher = more nucleation; inactive = no reads after selection
QUANTITY_MEASURED: amyloid nucleation score

FVDLIRLCMCFVRMSQSLRT inactive
SRFKFTAESLISVTVERLFL 0.626
GYPFSRLSSVV inactive
AEHHYAFAFTEF inactive
LVLMSEGFM inactive

# batch: return amyloid nucleation score for each of the 4 substances below
1. HVNLIDTKNSLMQMLN
2. PSSFKMY
3. LTDRDDDSTHVRSPYSRLLW
4. GMDKRNNYMSIIDWRVPHSI

["inactive", "inactive", "inactive", "inactive"]

* * *

ASSAY_EXPLANATION: amyloid nucleation score (Sup35N fusion, yeast selection) (log enrichment); library NNK2; higher = more nucleation; inactive = no reads after selection
QUANTITY_MEASURED: amyloid nucleation score
Answers are plain numbers.

Reference set (7 entries):
ASMVSVSVDEFGGFLPSCVS -0.55
SGVLSLGGVQSWNSLLRWDN -0.476
TTPLTRRFRRFHVW 1.02
YAKNYSILQACQLDHWEFGV 4.04
VVSHLGWTWGFKSMLGIRRS -0.759
YEFCSTRQRSELGGK 5.24
CEYYVHLRY -0.702

// switching to the query sequence
Quick check: amyloid nucleation score of YICRGASGIKSQLREWDVAH ?
-0.269

* * *

Give measured amyloid nucleation score for each item. Keep answers brief.
ASSAY_EXPLANATION: amyloid nucleation score (Sup35N fusion, yeast selection) (log enrichment); library NNK2; higher = more nucleation; inactive = no reads after selection
Answers are plain numbers.

Examples with their reported amyloid nucleation score follow.
LKWDFRIYTTSWAAKKQGME 0.095
FVCYADTNNGPQVVRTELSV -0.299
RRRCFQLK 0.294
SRSLNWPSAGKLKSDYEFVV -0.675
VDTSYITCITRLSPYIKVVL -0.477
CTFKFMAVQFCG 5.46

Dear colleague, could you send me amyloid nucleation score for each of the items below? Thanks.
1. RHAHWRVSSMDSVQFMWGE
2. SFRANDNSFGCQWRRFLISG
3. LMVKSDTCLLSLLSPTPFRR
4. CGKCSVCG
5. IGTADDKVSNRQGEPTEMA
6. LYRLGFEAHRVYKQLKIIGG
7. VPELVSYFHLP

[3.18, 0.032, 3.67, 0.502, 0.681, 0.764, 0.863]

* * *

ASSAY_EXPLANATION: amyloid nucleation score (Sup35N fusion, yeast selection) (log enrichment); library NNK1; higher = more nucleation; inactive = no reads after selection
QUANTITY_MEASURED: amyloid nucleation score

KNAVSSGRSGKITRR 0.231
FLRRIGMGYIRLRVLGSIFL 0.854
CVCLSVARLDYADIFVWTFM 2.28
WSSTRPCFLFQLRMAMLLCS 0.154
TRISFRKGV -0.54
VLWSCDAMWWVRIKSTYVWN 0.495
NLYPDLGVLVGCHSDKWSNL -0.115
ILRPSSFNMVALDLNISLPK 4.82
MYSKIYIFNLEFLMTYWNAL 1.92
STERKYLSLDKSWNVRLVLF 1.61

For each listed entry, give its amyloid nucleation score.
1. VTYTEYCSVLLKTH
2. NNHKLAFTVVTPIEDHFRMR

-1.81
0.674

Quick batch: amyloid nucleation score for everything below.
1. MCIFICLPVTVYDNIFHSFL
2. YKLRFNILASMDNRMKLKWL
3. YADNSSTLMSDILFTIYRIG
4. CQIFELLSNVRVTLLIYNSG
5. SRCRGSYTSSNSYWPAGDPM
6. LILFVGIYTLHYYGFNRRYS

[6.22, -0.899, 1.06, 1.41, -0.777, 0.272]

Respectfully, I request amyloid nucleation score for each entry included below.
1. SKYVYSF
2. FLIFIRFNGHCLSIGWFTLH
3. SIGFLYCPLMSCASNFKWSK

1. 1.2
2. 0.303
3. 4.55

* * *

ASSAY_EXPLANATION: amyloid nucleation score (Sup35N fusion, yeast selection) (log enrichment); library NNK2; higher = more nucleation; inactive = no reads after selection
Give measured amyloid nucleation score for each item. Keep answers brief.
Give bare numbers.

DVCMPIKKSITITTATVRVY -0.545

I have 3 substances here; please give me amyloid nucleation score for each one.
1. FLCLLDRVIMTLFFRIAL
2. INGCFDHPTSIETFSEEMWM
3. GLGSRWRCA

[0.453, -0.533, 2.01]

# per-item lookup of amyloid nucleation score; items listed below
1. LVSTEIN
2. GRNLMLSGVCGYKDVFLQAR

1: 3.75; 2: 0.359

Each of the following entries comes with a recorded value; kindly state amyloid nucleation score for each.
1. ALLWCQMWERDRSEFPIGGF
2. LRYPKRGFPNHVLSIESKLD
3. VFSGGSPWWVANMRGAPKLL

1.2
-0.479
0.94

* * *

ASSAY_EXPLANATION: amyloid nucleation score (Sup35N fusion, yeast selection) (log enrichment); library NNK1; higher = more nucleation; inactive = no reads after selection
QUANTITY_MEASURED: amyloid nucleation score
Numbers only.

Examples with their reported amyloid nucleation score follow.
TRSKMALGVQYHGLMQLYCR 0.121
DNKGYL -0.977
QFVHGRNETIRSFNCPGLAE -0.007
YGLMVVVKVS 6.67
YFFVLEFIVCIVMTITSLSC -0.988
ERDCAMISNLSNLTVNY -0.616
VNSTEGP -0.989
LKVERMTRKPHGVELLSFRR -0.163

Query (substance): FFWHVS ; field requested: amyloid nucleation score
0.091

* * *

ASSAY_EXPLANATION: amyloid nucleation score (Sup35N fusion, yeast selection) (log enrichment); library NNK2; higher = more nucleation; inactive = no reads after selection
Field: class. Source value: amyloid nucleation score. Ranges: I = under 0.1, II = from 0.1 up to 0.8, III = 0.8 and over

Illustrative cases are given below, each with its answer.
TSDWRLYFRLTDVVIGLW III
YLGVSSCLMSSSGRSLASTL III
LHQGSVCWDWLPVYEVTVLG I

Which amyloid nucleation score category applies to FWVKVNMSLGMSNLFVYACL here?
III

# iterate: FASVLLCSIRRALGRVVRPL
II

What do you have for RLSCKED ?
II

Try this substance too: LAFTFRSTRRTTSHSEVSSS
III

Please do the same for IQARSYFVPTFSFLCTHSPT as well.
III

* * *

Give measured amyloid nucleation score for each item. Keep answers brief.
ASSAY_EXPLANATION: amyloid nucleation score (Sup35N fusion, yeast selection) (log enrichment); library NNK1; higher = more nucleation; inactive = no reads after selection
Answers are plain numbers.

Use these answered entries as a reference point.
NGITLLGAVAFTVFLLYPRT -0.215
YNVWVWCERGQC 4.5
SRVVSYSL -0.5
MMPFYHSNSR -1.38
ESSNLYYYRTSHKKKTTLCS -0.639
DWVWWRTPSELVVYGADNWR -0.328
CHFSYSI 0.558

As a next step, examine the substance that follows.
Data request, read-out amyloid nucleation score, for NEHQVNEG
0.478

* * *

ASSAY_EXPLANATION: amyloid nucleation score (Sup35N fusion, yeast selection) (log enrichment); library NNK2; higher = more nucleation; inactive = no reads after selection
Kind request: treat 0.1 as inclusive, so amyloid nucleation score at 0.1 or higher is Yes, anything lower is No.

Take a look at these entries with their results.
KGVCRNMAGGKYANMRYGGV Yes
VLNSPVFFHSYRSMVSLM No
YSSAGDVMLNRQLDGCWLTR No
NYCRTIFYYCAMIYFPCLAE Yes
MFNLSLNEFKPGLNRDCVQ No

Please examine the following record next.
Please check the record IKFTLHCYDCVVFNC and state if its amyloid nucleation score is at or above 0.1.
Yes

Just for reference, the supplement of paper PMC12042874 is where these values come from.
